Tested on: A498
Assay: NCI tumour cell line growth inhibition, 48 h
The source made the active and inactive calls. Cut-off read from the data, not from the text of the source: active = GI50 up to about 1.1 µM and inactive = higher.
Parameter GI50: see the listing below.

Please review the following examples before continuing.
CCOC(=O)C1(C(=O)OCC)CC=C(C)CC12C(=O)Nc1ccccc12 (stereo not given) : > 100 µM (inactive)
CCn1c(=O)c2ccccc2n2c(=O)c3cc4ccccc4cc3nc12 : > 100 µM (inactive)
CNC(=O)c1cc2nc3ccccc3c(=O)n2c2ccccc12 : > 10 µM (inactive)
O=c1oc2cccnc2n1CCCCN1CCN(c2ccccc2)CC1 : > 100 µM (inactive)

Consider the additional molecule presented here.
Q: Consider the molecule CCN(CC)C(=O)Cc1[nH][nH]c(=O)c1C(=O)N(CC)CC and give its measured GI50.
Result: > 100 µM (inactive)

====

Tested on: MDA-N
Assay: NCI tumour cell line growth inhibition, 48 h
Active and inactive are the calls of the source. Rule as the data show it: active = GI50 up to about 1.1 µM and inactive = higher.
Could you please pick one outcome from this set? YES = active, NO = inactive

Cc1ccc([N+](=O)[O-])cc1S(=O)(=O)Nc1ccc(C2=NNC(c3ccccc3O)C2)cc1 (configuration not stated) : NO
CCOC(=O)c1cc(C2CCN(c3ccccc3)C2=O)c(C(=O)/C=C(/C)O)[nH]1 (configuration not stated) : NO
O=C1c2cc(Cc3ccccc3)c(=O)c(Cc3ccccc3)cc2C(=O)c2cc(Cc3ccccc3)c(=O)c(Cc3ccccc3)cc21 : NO
COc1cc(/C=C2\C[C@H]3[C@@H]4CC=C5C[C@@H](N6CCCC6)CC[C@]5(C)[C@H]4CC[C@]3(C)[C@H]2OC(C)=O)cc(OC)c1OC : NO
CN/C(=N\n1cnnc1)OC : NO

Q: Hi, do you know how COc1ccc2c(c1)c1c3c(ccc4ncn2c43)N(CCN(C)C)CCN=1 came out in this test?
Result: YES

Q: Hi, do you know how CC(=O)OCC1OC(OCCCOP(=O)(OCCC#N)OCC2OC(n3cnc4c(N)ncnc43)C(OC(=O)c3ccccc3)C2OC(=O)c2ccccc2)C(OC(C)=O)C(OC(C)=O)C1OC(C)=O (configuration not stated) came out in this test?
Result: NO

Q: Hi, do you know how CCCCn1c2c(n(CCCC)c1=[Se])-c1c(n(CCCC)c(=[Se])n1CCCC)S[Se][Se]S2 came out in this test?
Result: NO

Q: Hi, do you know how COC(=O)/C=C/CCC#Cc1ccccc1C#CCC/C=C/C(=O)OC came out in this test?
Result: NO

Q: Hi, do you know how C[n+]1ccc2/c(=C\C#N)c3ccccc3n21 came out in this test?
Result: NO

Q: Hi, do you know how NS(=O)(=O)c1nnc(NS(=O)(=O)c2ccc(Cl)cc2)s1 came out in this test?
Result: NO

Q: Hi, do you know how CCCC(=O)Nc1cc([N+](=O)[O-])c([N+](=O)[O-])cc1OC came out in this test?
Result: NO

Q: Hi, do you know how CCN1CC2(C)CCC(OC)C34C5CC6CCC(O)(C5C(=O)O6)C(C(O)C23)C14 (configuration not stated) came out in this test?
Result: NO

====

System: MDA-MB-435
Experiment: NCI tumour cell line growth inhibition, 48 h
Counter-ions that a name gives are not always drawn. The source made the active and inactive calls. Cut-off read from the data, not from the text of the source: active = GI50 up to about 1.1 µM and inactive = higher.
Could you please pick one outcome from this set? active, inactive

Q: Hi, do you know how O=[N+]([O-])c1ccc2[nH]nc(OCc3ccccc3Cl)c2c1 came out in this test?
Result: inactive

Q: Hi, do you know how CN1CCC(CN2c3ccccc3Sc3ccccc32)C1 (stereo not drawn) [METHDILAZINE HYDROCHLORIDE] came out in this test?
Result: inactive

Q: Hi, do you know how COC1OC2COC1(OCc1ccccc1)C1OC(C)(C)OC21 (stereo not drawn) came out in this test?
Result: inactive

Q: Hi, do you know how O=C(O)C1C2c3ccccc3C(c3ccccc32)C1C(=O)NCC1CC1 (stereo not drawn) came out in this test?
Result: inactive

Q: Hi, do you know how Cc1ccc(S(=O)(=O)ON2C(=O)c3cccc4cc([N+](=O)[O-])cc(c34)C2=O)cc1 came out in this test?
Result: inactive
